# Test protocol: In vivo pharmacokinetic study, monkey
# Parameters: species or system cynomolgus monkey
# Test context: cynomolgus monkey, intravenous; Monkey (plasma); read-out: Vss
Measured attribute: Vd (L/kg)
Give just the numeric value; L/kg need not be written.

Q: Bench note: what Vd did "CNC(=O)c1c(-c2ccc(F)cc2)oc2cc(N(Cc3ccc(B(O)O)c(F)c3)S(C)(=O)=O)c(C3CC3)cc12" show?
Result: 1.8

----------
Kindly state half-life for each of the entries shown.
# Test protocol: Hepatocyte incubations, metabolic stability
# Format: in vitro ADME
# Design: dose or concentration left out as unconfirmed
# Test context: cryopreserved human hepatocytes, 0.25×10^6 cells, up to 120 min, 37 C

Q: Bench note: what half-life did CNC(=O)c1c(-c2ccc(F)cc2)oc2cc(N(c3cc(Cl)c4c(c3)COB4O)S(C)(=O)=O)c(C3CC3)cc12 [Example 15] show?
Result: > 6 h

Q: Bench note: what half-life did CNC(=O)c1c(-c2ccc(F)cc2)oc2cc(N(c3ccc(B(O)O)c(Cl)c3)S(C)(=O)=O)c(C3CC3)cc12 [Example 1] show?
Result: > 6 h

Q: Bench note: what half-life did CNC(=O)c1c(-c2ccc(F)cc2)oc2cc(N(Cc3cc(F)c4c(c3)COB4O)S(C)(=O)=O)c(C3CC3)cc12 [A] show?
Result: > 6 h

----------
Kindly state EC50 for each of the entries shown.
# Tested on: sub-genomic HCV NS3-NS5B replicon genotype 1b C316N (Huh-7 cells)
# Test protocol: Replicon luciferase cell based assay, genotype 1b C316N
# Test context: Hepatitis C virus, Huh-7, 48 h, read-out: EC50 1b 316N

Q: Record lookup: for sub-genomic HCV NS3-NS5B replicon genotype 1b C316N (Huh-7 cells), what EC50 belongs to "CNC(=O)c1c(-c2ccc(Cl)cc2)oc2cc(N(c3ccc(B(O)O)c(Cl)c3)S(C)(=O)=O)c(C3CC3)cc12" ?
Result: 1 to 10 nM

Q: Record lookup: for sub-genomic HCV NS3-NS5B replicon genotype 1b C316N (Huh-7 cells), what EC50 belongs to "CS(=O)(=O)N(c1ccc(B(O)O)c(Cl)c1)c1cc2oc(-c3ccc(Cl)cc3)c(C(=O)O)c2cc1C1CC1" ?
Result: > 1000 nM

Q: Record lookup: for sub-genomic HCV NS3-NS5B replicon genotype 1b C316N (Huh-7 cells), what EC50 belongs to "CNC(=O)c1c(-c2ccc(F)cc2)oc2cc(N(c3ccc(B(O)O)cc3)S(C)(=O)=O)c(C3CC3)cc12" ?
Result: 1 to 10 nM

Q: Record lookup: for sub-genomic HCV NS3-NS5B replicon genotype 1b C316N (Huh-7 cells), what EC50 belongs to "CS(=O)(=O)N(c1ccc(B(O)O)c(Cl)c1)c1cc2oc(-c3ccc(Cl)cc3)c(C(N)=O)c2cc1C1CC1" ?
Result: 1 to 10 nM

Q: Record lookup: for sub-genomic HCV NS3-NS5B replicon genotype 1b C316N (Huh-7 cells), what EC50 belongs to "CNC(=O)c1c(-c2ccc(F)cc2)oc2cc(N(c3ccc(B(O)O)c(S(C)(=O)=O)c3)S(C)(=O)=O)c(C3CC3)cc12" ?
Result: 11 to 200 nM

Q: Record lookup: for sub-genomic HCV NS3-NS5B replicon genotype 1b C316N (Huh-7 cells), what EC50 belongs to "CNC(=O)c1c(-c2ccc(F)cc2)oc2cc(N(c3cccc(B(O)O)c3)S(C)(=O)=O)c(C3CC3)cc12" ?
Result: 11 to 200 nM

Q: Record lookup: for sub-genomic HCV NS3-NS5B replicon genotype 1b C316N (Huh-7 cells), what EC50 belongs to "CNC(=O)c1c(-c2ccc(F)cc2)oc2cc(N(c3ccc(B(O)O)c(C#N)c3)S(C)(=O)=O)c(C3CC3)cc12" ?
Result: 1 to 10 nM

Q: Record lookup: for sub-genomic HCV NS3-NS5B replicon genotype 1b C316N (Huh-7 cells), what EC50 belongs to "CNC(=O)c1c(-c2ccc(Cl)cc2)oc2cc(N(c3ccc(B(O)O)c(F)c3)S(C)(=O)=O)c(C3CC3)cc12" ?
Result: 1 to 10 nM

Q: Record lookup: for sub-genomic HCV NS3-NS5B replicon genotype 1b C316N (Huh-7 cells), what EC50 belongs to "CNC(=O)c1c(-c2ccc(Cl)cc2)oc2cc(N(c3ccc(B(O)O)c(C#N)c3)S(C)(=O)=O)c(C3CC3)cc12" ?
Result: 1 to 10 nM

Q: Record lookup: for sub-genomic HCV NS3-NS5B replicon genotype 1b C316N (Huh-7 cells), what EC50 belongs to "CNC(=O)c1c(-c2ccc(F)cc2)oc2cc(N(c3ccc4c(c3)COB4O)S(C)(=O)=O)c(C3CC3)cc12" ?
Result: 1 to 10 nM

Q: Record lookup: for sub-genomic HCV NS3-NS5B replicon genotype 1b C316N (Huh-7 cells), what EC50 belongs to "CNC(=O)c1c(-c2ccc(F)cc2)oc2cc(N(c3cc(F)c4c(c3)COB4O)S(C)(=O)=O)c(C3CC3)cc12" ?
Result: 1 to 10 nM

Q: Record lookup: for sub-genomic HCV NS3-NS5B replicon genotype 1b C316N (Huh-7 cells), what EC50 belongs to "CNC(=O)c1c(-c2ccc(F)cc2)oc2cc(N(c3ccc(CCB(O)O)c(Cl)c3)S(C)(=O)=O)c(C3CC3)cc12" ?
Result: 11 to 200 nM

Q: Record lookup: for sub-genomic HCV NS3-NS5B replicon genotype 1b C316N (Huh-7 cells), what EC50 belongs to "CNC(=O)c1c(-c2ccc(F)cc2)oc2cc(N(c3cc(Cl)c4c(c3)COB4O)S(C)(=O)=O)c(C3CC3)cc12" ?
Result: 1 to 10 nM

Q: Record lookup: for sub-genomic HCV NS3-NS5B replicon genotype 1b C316N (Huh-7 cells), what EC50 belongs to CNC(=O)c1c(-c2ccc(F)cc2)oc2cc(N(c3ccc(C4CCB(O)O4)c(Cl)c3)S(C)(=O)=O)c(C3CC3)cc12 (stereo not drawn) [Example 27] ?
Result: 11 to 200 nM

Q: Record lookup: for sub-genomic HCV NS3-NS5B replicon genotype 1b C316N (Huh-7 cells), what EC50 belongs to "CNC(=O)c1c(-c2ccc(F)cc2)oc2cc(N(c3ccc(OCB(O)O)cc3)S(C)(=O)=O)c(C3CC3)cc12" ?
Result: 11 to 200 nM
